Would you kindly list melting point for each of these compounds?

Data request: If you can, please state the reported melting point value of Cn1c(C=Cc2ccccc2)cnc1[N+](=O)[O-] .
Data returned: 170 to 180 °C

Data request: If you can, please state the reported melting point value of O=c1c(Br)c(N2CCOCC2)oc2ccccc12 .
Data returned: 145 to 146 °C

Data request: If you can, please state the reported melting point value of CCCn1cc(Cc2ccc(C(=O)O)cc2OC)c2cc(CC3CCCN(C)C3=O)ccc21 (stereo not given) .
Data returned: 105 to 115 °C

Data request: If you can, please state the reported melting point value of CC(C)(COC(=O)COc1ccc(C(=O)CN2Cc3cc(C#N)ccc3C2=O)cc1)NS(=O)(=O)c1cccnc1 .
Data returned: 190 to 192 °C

Data request: If you can, please state the reported melting point value of Cc1cccc(C)c1N1C(=N)N(c2c(C)cccc2C)C(C)C1C (stereo not given) .
Data returned: 155 to 157 °C

Data request: If you can, please state the reported melting point value of Cc1ccc(S(=O)(=O)Oc2ccc(F)cc2Cl)cc1 .
Data returned: 92 to 94 °C

Data request: If you can, please state the reported melting point value of Cc1c(Br)sc2cc(C(=O)CBr)ccc12 .
Data returned: 126 to 128 °C

Data request: If you can, please state the reported melting point value of CCOc1cc(-c2cc(C(F)(F)F)n3ncc(C(=O)O)c3n2)ccc1C(F)(F)F .
Data returned: 264 °C

Data request: If you can, please state the reported melting point value of COc1ccc(Cn2c(=O)[nH]c3ncccc3c2=O)cc1 .
Data returned: 272 to 273 °C

Data request: If you can, please state the reported melting point value of c1ccc(Sc2cc(Sc3ccccc3)cc(Sc3ccccc3)c2)cc1 .
Data returned: 40 to 41 °C

----------
Endpoint name: melting point

Data request: If you can, please state the reported melting point value of COC(=O)c1cccc2c(C(F)(F)F)c(OC)ccc12 .
Data returned: 79 to 80 °C

Data request: If you can, please state the reported melting point value of COc1cc2c(cc1OC)C(O)(CN)CCC2 (stereo unspecified) .
Data returned: 107 to 109 °C

Data request: If you can, please state the reported melting point value of Cn1c(=O)oc2c(OC3CCCCO3)cccc21 (stereo unspecified) .
Data returned: 128 to 129 °C

Data request: If you can, please state the reported melting point value of COc1ccccc1-c1cn(N=Cc2ccccc2)c(N)n1 .
Data returned: 166 to 167 °C

Data request: If you can, please state the reported melting point value of COCc1c(-c2ccc(O)cc2)oc2ccccc2c1=O .
Data returned: 237 to 239 °C

Data request: If you can, please state the reported melting point value of CCOC(=O)c1cc(Br)c(OCCO)c(-c2cccc(Cl)c2)c1 .
Data returned: 108 to 110 °C

Data request: If you can, please state the reported melting point value of CN(C)CCCOc1cc(-c2ncccc2Cl)cc2c(Nc3nccs3)n[nH]c12 .
Data returned: 215 to 217 °C

Data request: If you can, please state the reported melting point value of O=C(O)CNC1CCc2ccccc2C1 (stereo unspecified) .
Data returned: 223 to 227 °C

Data request: If you can, please state the reported melting point value of CC(C)(C)N=NC(C)(C)C#N .
Data returned: 17 °C

Data request: If you can, please state the reported melting point value of CCCCCCCCOc1ccc(-c2ncc(-c3ccc(CCCCCCCC)cc3)cn2)c(F)c1 .
Data returned: 75 °C

Data request: If you can, please state the reported melting point value of CCN1CCCC(N2C(=O)c3ccc(N)cc3C2=O)C1 (stereo unspecified) .
Data returned: > 300 °C

Data request: If you can, please state the reported melting point value of CCCCNC(=O)OC1c2cccnc2C(=O)N1c1ccc2ccc(Cl)nc2n1 (stereo unspecified) .
Data returned: 215 °C

Data request: If you can, please state the reported melting point value of Cc1nn(Cc2ccccc2)c(=O)[nH]c1=O .
Data returned: 141 to 142 °C

Data request: If you can, please state the reported melting point value of CSc1ccc(N2CCON(C)C2=O)cc1C(F)(F)F .
Data returned: 60 °C

Data request: If you can, please state the reported melting point value of Cn1cc(C(=O)NCc2ccc(Cl)cc2)c(=O)c2cc(COCC[C@@H](O)c3ccccc3)sc21 .
Data returned: 154 to 156 °C

Data request: If you can, please state the reported melting point value of CCOC(=O)c1cnn(C)c1C(=O)Nc1ccn2nc(-c3ccnc(F)c3)nc2c1 .
Data returned: 220 to 230 °C

Data request: If you can, please state the reported melting point value of NC(=O)[C@H](O)[C@@H](O)[C@H](O)[C@H](O)CO .
Data returned: 109 to 111 °C

Data request: If you can, please state the reported melting point value of O=C(O)c1cc(S(=O)(=O)N(CCc2ccc(Cl)cc2)Cc2ccccc2)ccc1Br .
Data returned: 142 to 144 °C

Data request: If you can, please state the reported melting point value of Cn1cc(C(=O)NCc2ccc(Cl)cc2)c(=O)c2cc(CN3CCOCC3)cc(C#CCn3cnc(Cl)c3Cl)c21 .
Data returned: 178 to 181 °C

Data request: If you can, please state the reported melting point value of CCN(CC)C(=O)CCCC1CCN(Cc2cnc3c(C)c(NC(=O)c4ccc(-c5ccc(F)cc5)cc4)ccc3c2)CC1 .
Data returned: 145 to 146 °C

Data request: If you can, please state the reported melting point value of O=c1c2ccc(/C=C/c3ccc(O)cc3)cc2cnn1-c1ccccn1 .
Data returned: 272 °C

Data request: If you can, please state the reported melting point value of CCONC(=O)Cc1ccc2cc(OC)ccc2c1 .
Data returned: 196 to 197 °C

Data request: If you can, please state the reported melting point value of CSc1ncc(C=O)c(N)n1 .
Data returned: 184 to 186 °C

Data request: If you can, please state the reported melting point value of CC(C)(C)c1ccc(CNC(=O)NCc2ccc(NS(C)(=O)=O)c(Cl)c2)cc1 .
Data returned: 60 to 61 °C

Data request: If you can, please state the reported melting point value of O=[N+]([O-])c1cccc2c(OS(=O)(=O)C(F)(F)F)ccnc12 .
Data returned: 108 °C

Data request: If you can, please state the reported melting point value of COCCO[C@H]1c2ccn3c(C)c(C)nc3c2N[C@@H](c2ccccc2)[C@@H]1O .
Data returned: 130 to 131 °C

Data request: If you can, please state the reported melting point value of C[C@@H]1O[C@](/C=C/C2CC2)(C(F)(F)F)c2c(ccc(F)c2F)NC1=O (relative stereo) .
Data returned: 192 to 193 °C

Data request: If you can, please state the reported melting point value of CCOC(=O)C(C(=O)OCC)c1cccc(C(=O)c2ccc(Cl)cc2)c1[N+](=O)[O-] .
Data returned: 96 to 100 °C

Data request: If you can, please state the reported melting point value of CCOCc1nc2c(N)nc3cc(O)ccc3c2n1CC(C)C .
Data returned: > 265 °C

Data request: If you can, please state the reported melting point value of COC(=N)CCCCc1csc(NC(=N)N)n1 .
Data returned: 143 to 145 °C

Data request: If you can, please state the reported melting point value of CN(C)C(=O)C1CC(c2ccc(-c3ccc(N4C[C@H](Cn5ccnn5)OC4=O)cc3F)cn2)=NO1 (stereo partly specified) .
Data returned: 180 to 190 °C

Data request: If you can, please state the reported melting point value of CC(=O)CCc1ccc(C(=O)Nc2ccc3cc(CN4CCCC4)cnc3c2C)cc1 .
Data returned: 106 to 108 °C

Data request: If you can, please state the reported melting point value of CC(=O)NCCCc1cccc2c1CC(CCCCc1ccccc1)O2 (stereo unspecified) .
Data returned: 40 to 41 °C

Data request: If you can, please state the reported melting point value of Cc1sc2c(c1C(=O)c1ccccc1)CCC2C(N)=O (stereo unspecified) .
Data returned: 165 to 168 °C

Data request: If you can, please state the reported melting point value of O=C(COc1ccccc1)NC(Cc1ccccc1)C(=O)NNc1ccccc1 (stereo unspecified) .
Data returned: 172 to 175 °C

Data request: If you can, please state the reported melting point value of C1=C(c2ccc3c(c2)OCO3)CCN(Cc2n[nH]c3ccccc23)C1 .
Data returned: 139 to 141 °C

Data request: If you can, please state the reported melting point value of CC1CCN(C2C3=CC(OC3=O)C3C(CC4(C)OC4C2O)OC(=O)C3C)CC1 (stereo unspecified) .
Data returned: 210 °C

Data request: If you can, please state the reported melting point value of COc1cc(Nc2c(C#N)cnc3cc4cc(OC)c(OCCCl)cc4cc23)c(Cl)cc1F .
Data returned: 193 to 204 °C

Data request: If you can, please state the reported melting point value of CC(C)(C)OC(=O)Nc1cc(OCC2COC(=O)O2)c(C#Cc2ccccc2)cc1N (racemic) .
Data returned: 140 °C

Data request: If you can, please state the reported melting point value of COc1nc2ccccc2cc1NC(=O)N1CCN(c2cccc(C)c2C)CC1 .
Data returned: 174 to 175 °C

Data request: If you can, please state the reported melting point value of CCCCCCC1(CCCCCC)c2cc(Br)ccc2-c2ccc(Br)cc21 .
Data returned: 64 to 66 °C
